Origin of the recorded values: paper PMC4336329

Target: human ether-à-go-go-related gene (hERG) potassium channel (human, UniProt Q12809)
Sequence (Q12809 whole entry, looked up): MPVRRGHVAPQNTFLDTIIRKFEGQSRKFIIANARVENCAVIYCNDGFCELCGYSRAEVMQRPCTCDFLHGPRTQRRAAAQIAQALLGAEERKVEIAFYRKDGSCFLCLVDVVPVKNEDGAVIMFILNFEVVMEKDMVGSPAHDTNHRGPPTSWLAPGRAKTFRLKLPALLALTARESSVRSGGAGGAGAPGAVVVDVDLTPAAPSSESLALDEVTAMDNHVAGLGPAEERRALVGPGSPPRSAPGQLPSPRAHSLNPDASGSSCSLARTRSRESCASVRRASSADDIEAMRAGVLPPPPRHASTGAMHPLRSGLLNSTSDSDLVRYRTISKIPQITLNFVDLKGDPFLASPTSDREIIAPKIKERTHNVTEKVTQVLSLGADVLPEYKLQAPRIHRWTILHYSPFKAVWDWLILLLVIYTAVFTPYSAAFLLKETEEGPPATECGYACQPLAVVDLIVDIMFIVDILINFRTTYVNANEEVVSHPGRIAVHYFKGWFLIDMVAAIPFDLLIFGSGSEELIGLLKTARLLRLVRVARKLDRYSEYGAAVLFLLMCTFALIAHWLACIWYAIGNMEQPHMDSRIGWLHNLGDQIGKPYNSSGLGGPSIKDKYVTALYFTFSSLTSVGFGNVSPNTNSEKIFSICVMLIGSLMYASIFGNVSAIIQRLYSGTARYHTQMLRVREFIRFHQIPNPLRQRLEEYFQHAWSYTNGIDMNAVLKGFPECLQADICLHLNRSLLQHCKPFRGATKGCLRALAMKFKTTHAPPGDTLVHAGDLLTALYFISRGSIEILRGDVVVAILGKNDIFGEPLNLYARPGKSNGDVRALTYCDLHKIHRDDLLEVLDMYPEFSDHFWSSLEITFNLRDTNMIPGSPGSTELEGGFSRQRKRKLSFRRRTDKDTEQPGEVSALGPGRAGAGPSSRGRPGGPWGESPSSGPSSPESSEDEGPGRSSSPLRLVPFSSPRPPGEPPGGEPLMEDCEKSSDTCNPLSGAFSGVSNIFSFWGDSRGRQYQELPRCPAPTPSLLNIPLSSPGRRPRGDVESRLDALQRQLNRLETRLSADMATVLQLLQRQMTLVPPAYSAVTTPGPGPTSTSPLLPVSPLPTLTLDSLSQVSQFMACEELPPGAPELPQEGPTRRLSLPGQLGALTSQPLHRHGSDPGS
Experiment: primary screen, population patch clamp on CHO cells stably expressing hERG; higher = less effect of the substance
About 14,000 (4.5%) of roughly 310,000 compounds showed an effect of 50% or more. The effect is printed as a negative number. The entries come from a sample that favours strong results as a whole.
Exercise: for every item that follows, state its recorded hERG current change (%, negative = inhibition) at 10uM.
Answers are plain numbers, in %.

Solved entries (count: 6):
compound: N=c1c(S(=O)(=O)c2ccccc2)cc2c(=O)n3ccccc3nc2n1Cc1cccnc1
target.desc: human ether-à-go-go-related gene (hERG) potassium channel (human, UniProt Q12809)
output.unit: %
recorded.result: -59.2

compound: O=C(N/N=C/c1ccccc1O)C1CC(=O)N(c2ccc(Cl)cc2)C1 (stereo not drawn)
target.desc: human ether-à-go-go-related gene (hERG) potassium channel (human, UniProt Q12809)
output.unit: %
recorded.result: 8.21

compound: CN1CCN(c2ccc(S(=O)(=O)N3CCCCC3)cc2NC(=O)COc2ccc(F)cc2)CC1
target.desc: human ether-à-go-go-related gene (hERG) potassium channel (human, UniProt Q12809);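 note: peak tail current of the secondary pulse compared with the same well before compound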
output.unit: %
recorded.result: -75.2

compound: O=C(N/N=C/c1cccc([N+](=O)[O-])c1)C1CC(=O)N(c2ccc(F)cc2)C1 (stereo not drawn)
target.desc: human ether-à-go-go-related gene (hERG) potassium channel (human, UniProt Q12809);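 note: peak tail current of the secondary pulse compared with the same well before compound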
output.unit: %
recorded.result: -65.8

compound: Cn1c(SCC(=O)NC2CCCCC2)nnc1-c1ccncc1
target.desc: human ether-à-go-go-related gene (hERG) potassium channel (human, UniProt Q12809);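 note: peak tail current of the secondary pulse compared with the same well before compound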
output.unit: %
recorded.result: 13.2

compound: Cc1ccccc1OCC(=O)Nc1cc(S(=O)(=O)N2CCCCC2)ccc1N1CCN(C)CC1
target.desc: human ether-à-go-go-related gene (hERG) potassium channel (human, UniProt Q12809);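 note: peak tail current of the secondary pulse compared with the same well before compound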
output.unit: %
recorded.result: -28.3

Batch: hERG current change (%, negative = inhibition) at 10uM for all items listed.
1. O=c1cc(CSc2nnc(COc3cccc4ccccc34)o2)c2ccccc2[nH]1
2. Cc1ccc(OCC(=O)Nc2cc(S(=O)(=O)N3CCCCC3)ccc2N2CCN(C)CC2)c(C)c1
3. O=C(NC1CCS(=O)(=O)C1)c1ccc2c(c1)OCO2 (stereo not drawn)
4. CCCCCc1nc2ccccc2c(=O)n1-c1ccccc1[N+](=O)[O-]
5. COc1ccc(N(C(=O)Cn2nnc(-c3ccccc3F)n2)C(C(=O)NCC2CCCO2)c2ccc(Cl)cc2)cc1 (stereo not drawn)
6. CN1CCN(c2ccc(S(=O)(=O)N3CCCCC3)cc2NC(=O)COc2cccc(Cl)c2)CC1
7. Cc1ccc(Cl)c(OCC(=O)Nc2cc(S(=O)(=O)N3CCOCC3)ccc2N2CCCC2)c1
8. Cc1sc(NC(=O)c2cc(-c3ccc(Cl)cc3)nc3ccccc23)c(C(N)=O)c1C

1: 22.2; 2: -57.7; 3: 13; 4: -24.5; 5: 22.6; 6: -49.1; 7: -15.4; 8: 5.31

List hERG current change (%, negative = inhibition) at 10uM for every entry below, keeping the order given.
1. CC(C)Cc1cc(C(=O)N2CCN(C(c3ccccc3)c3ccccc3)CC2)no1
2. N=c1c(S(=O)(=O)c2ccc(Br)cc2)cc2c(=O)n3ccccc3nc2n1Cc1ccccc1

[0.0803, 27]

Give hERG current change (%, negative = inhibition) at 10uM for all compounds that follow.
1. CCOC(=O)C1CCCN(c2c(NCCN3CCCCC3C)c(=O)c2=O)C1 (stereo not drawn)
2. COc1ccc(CCc2nnc(CCC(=O)N(C)Cc3ccnc4ccccc34)o2)cc1
3. CC(Sc1nc2cc(Cl)ccc2s1)C(=O)Nc1ccc2c(c1)OCO2 (stereo not drawn)
4. CC(=O)Oc1cc2c(C(=O)NCCCN3CCOCC3)c(C)oc2c2ccccc12
5. CN1CCN(c2ccc(S(=O)(=O)N3CCCCC3)cc2NC(=O)Cc2ccccc2F)CC1
6. Cc1cccn2c(=O)c3cc(S(=O)(=O)c4ccccc4)c(=N)n(Cc4ccc(F)cc4)c3nc12
7. CCOC(=O)C1=C(COC(=O)CC(C)c2ccccc2)NC(=O)NC1C (stereo not drawn)
8. N=c1c(S(=O)(=O)c2ccc(Cl)cc2)cc2c(=O)n3ccccc3nc2n1Cc1cccnc1

5.47
-37.7
6.08
-18.2
-31
24.7
-17.8
-35.5

// each compound listed below needs its hERG current change (%, negative = inhibition) at 10uM
1. O=C(N/N=C/c1cccc([N+](=O)[O-])c1)C1CC(=O)N(c2ccc(Cl)cc2)C1 (stereo not drawn)
2. CCC1CCCCN1C(=O)c1cc2c(=O)n3cccc(C)c3nc2s1 (stereo not drawn)
3. CCOC(=O)C1CCN(Cc2ccc(OC)c(OCc3ccccc3)c2)CC1

1: -82.1; 2: 4.01; 3: -38.3
